Target: Protein-tyrosine kinase 2-beta (Homo sapiens) (UniProt Q14289)
Sequence (Q14289 whole entry, looked up): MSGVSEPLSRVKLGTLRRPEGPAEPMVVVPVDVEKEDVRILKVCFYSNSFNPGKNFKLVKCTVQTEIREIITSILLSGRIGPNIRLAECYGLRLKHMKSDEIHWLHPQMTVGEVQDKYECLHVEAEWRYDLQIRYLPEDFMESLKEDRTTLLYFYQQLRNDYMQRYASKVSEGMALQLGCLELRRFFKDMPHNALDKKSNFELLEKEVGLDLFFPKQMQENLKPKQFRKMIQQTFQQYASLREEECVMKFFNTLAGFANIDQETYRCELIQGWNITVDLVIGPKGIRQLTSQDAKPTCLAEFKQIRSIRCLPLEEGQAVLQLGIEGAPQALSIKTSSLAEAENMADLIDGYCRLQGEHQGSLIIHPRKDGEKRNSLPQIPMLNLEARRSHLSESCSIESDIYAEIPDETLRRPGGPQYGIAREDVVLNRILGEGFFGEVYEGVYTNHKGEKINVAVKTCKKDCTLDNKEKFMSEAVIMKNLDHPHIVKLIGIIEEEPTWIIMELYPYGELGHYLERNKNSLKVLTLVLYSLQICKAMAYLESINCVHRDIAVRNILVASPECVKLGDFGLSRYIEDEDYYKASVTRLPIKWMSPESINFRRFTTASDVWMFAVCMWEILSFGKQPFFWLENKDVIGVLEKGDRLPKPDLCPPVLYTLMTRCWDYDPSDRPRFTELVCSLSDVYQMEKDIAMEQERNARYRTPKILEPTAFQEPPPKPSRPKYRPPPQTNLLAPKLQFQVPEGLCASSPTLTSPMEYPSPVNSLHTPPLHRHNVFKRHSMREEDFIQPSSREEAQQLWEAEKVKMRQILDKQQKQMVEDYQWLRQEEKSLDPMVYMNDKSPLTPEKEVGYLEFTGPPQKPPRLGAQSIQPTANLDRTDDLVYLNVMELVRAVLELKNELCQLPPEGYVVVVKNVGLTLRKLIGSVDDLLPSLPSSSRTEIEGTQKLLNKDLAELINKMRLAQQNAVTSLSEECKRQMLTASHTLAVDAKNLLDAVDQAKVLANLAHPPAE
Settings: at 1 µM
The reader will find reported residual activity values listed item by item below.
Unit % implied. Number only.

Answered examples (3):
molecular_string=CCN(CC)CCNC(=O)c1c(C)[nH]c(/C=C2\C(=O)Nc3ccc(Cl)cc32)c1C assay_system="Protein-tyrosine kinase 2-beta (Homo sapiens) (UniProt Q14289)" experimental_endpoint="residual activity" assay_result=15
molecular_string=CC(C)(C)n1nc(Cc2cccc3ccccc23)c2c(N)ncnc21 assay_system="Protein-tyrosine kinase 2-beta (Homo sapiens) (UniProt Q14289)" experimental_endpoint="residual activity" assay_result=89
molecular_string=N#C/C(=C\c1ccc(O)c(O)c1)C(=O)NCc1ccccc1 assay_system="Protein-tyrosine kinase 2-beta (Homo sapiens) (UniProt Q14289)" experimental_endpoint="residual activity" assay_result=146

Proceeding to the next molecule to report its residual activity.
Name the recorded residual activity of the item CC(C)[C@H](CO)Nc1nc(Nc2cc(N)cc(Cl)c2)c2ncn(C(C)C)c2n1 in your answer.
59

* * *

Target: cGMP-dependent protein kinase 1 (Homo sapiens) (UniProt Q13976)
Sequence (Q13976 whole entry): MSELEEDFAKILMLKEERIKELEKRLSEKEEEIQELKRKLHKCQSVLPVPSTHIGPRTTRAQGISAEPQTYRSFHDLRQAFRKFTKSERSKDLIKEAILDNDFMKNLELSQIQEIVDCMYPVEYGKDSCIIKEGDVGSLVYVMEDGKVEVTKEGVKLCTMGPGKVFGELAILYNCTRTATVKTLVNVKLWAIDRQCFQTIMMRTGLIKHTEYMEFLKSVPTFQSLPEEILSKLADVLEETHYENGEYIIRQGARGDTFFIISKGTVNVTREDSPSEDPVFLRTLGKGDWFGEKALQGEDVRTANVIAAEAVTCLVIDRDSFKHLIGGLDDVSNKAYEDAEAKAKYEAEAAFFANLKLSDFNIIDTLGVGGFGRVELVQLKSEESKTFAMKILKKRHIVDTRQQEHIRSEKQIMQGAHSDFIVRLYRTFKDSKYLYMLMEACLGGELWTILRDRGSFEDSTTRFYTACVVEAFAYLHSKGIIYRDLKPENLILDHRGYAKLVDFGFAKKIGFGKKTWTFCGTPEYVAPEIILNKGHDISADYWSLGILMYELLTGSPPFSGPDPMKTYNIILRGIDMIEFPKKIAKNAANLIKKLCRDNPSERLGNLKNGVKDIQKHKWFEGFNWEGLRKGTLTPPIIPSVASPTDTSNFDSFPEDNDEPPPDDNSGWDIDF
Details: at 10 µM
Below, each entry is listed alongside its reported residual activity.
I only need the number, in %, no unit after it.

compound=COc1ccc2c(c1)c(C1=C(c3c[nH]c4ccccc34)C(=O)NC1=O)cn2CCCN(C)C assay_result=22
compound=CN(C)S(=O)(=O)c1ccc2c(c1)/C(=C/c1cc3c([nH]1)CCCC3)C(=O)N2 assay_result=80
compound=CC(C)c1nn(-c2c(Cl)cccc2Cl)c2nc(Cc3ccc(OCCO)cc3)[nH]c(=O)c12 assay_result=48
compound=COc1ccc(Cl)cc1NC(=O)Nc1cc(C)nc2ccccc12 assay_result=88
compound=O=c1cc(N2CCOCC2)oc2c1ccc1ccccc12 assay_result=99
compound=CC(C)(C)c1nc2c3ccc(F)cc3c3c(=O)[nH]ccc3c2[nH]1 assay_result=19
compound=O=C1Cc2c([nH]c3ccc(Br)cc23)-c2ccccc2N1 assay_result=74
compound="O=C(NC(NC(=S)Nc1ccc(F)c([N+](=O)[O-])c1)C(Cl)(Cl)Cl)C(c1ccccc1)c1ccccc1 (centres undefined)" assay_result=73
compound=O=C(O)/C=C/c1cc(Br)c(Br)c(Br)c1Br assay_result=32
compound=COc1ccc(-c2cnc3c(-c4ccsc4)cnn3c2)cc1 assay_result=99

Identify the reported residual activity for the following entry. O=C1NC(=O)C(c2cn(CCCO)c3ncccc23)=C1c1cnccn1
74

Fill in residual activity for record CC(C)[C@H](CO)Nc1nc(Nc2cc(N)cc(Cl)c2)c2ncn(C(C)C)c2n1
80

Find the measured residual activity of Cc1cc(C)c(/C=C2\C(=O)Nc3ccccc32)[nH]1 and report it.
78

Item O=C1C(Cl)=C(N2C(=O)CCC2=O)C(=O)c2ccccc21 : provide residual activity
88

// Input: CSc1nc(-c2ccc(F)cc2)c(-c2ccnc(NC(C)c3ccccc3)c2)[nH]1 (centres undefined) . Output its residual activity only.
84

Give the measured residual activity for CC(C)(C)n1nc(Cc2cccc3ccccc23)c2c(N)ncnc21
95

Kindly indicate its recorded residual activity. Item: Nc1ncnc2c1c(-c1ccc(Oc3ccccc3)cc1)cn2C1CCCC1
72

Dear colleague, please send me the reported residual activity for N#Cc1c(NC(=O)c2cccc3ccccc23)sc2c1CCCC2 when you can.
87
